Biological target: Human CB1R (Cannabanoid receptor 1) (Homo sapiens (Human), UniProt P21554)
Sequence (P21554 whole entry): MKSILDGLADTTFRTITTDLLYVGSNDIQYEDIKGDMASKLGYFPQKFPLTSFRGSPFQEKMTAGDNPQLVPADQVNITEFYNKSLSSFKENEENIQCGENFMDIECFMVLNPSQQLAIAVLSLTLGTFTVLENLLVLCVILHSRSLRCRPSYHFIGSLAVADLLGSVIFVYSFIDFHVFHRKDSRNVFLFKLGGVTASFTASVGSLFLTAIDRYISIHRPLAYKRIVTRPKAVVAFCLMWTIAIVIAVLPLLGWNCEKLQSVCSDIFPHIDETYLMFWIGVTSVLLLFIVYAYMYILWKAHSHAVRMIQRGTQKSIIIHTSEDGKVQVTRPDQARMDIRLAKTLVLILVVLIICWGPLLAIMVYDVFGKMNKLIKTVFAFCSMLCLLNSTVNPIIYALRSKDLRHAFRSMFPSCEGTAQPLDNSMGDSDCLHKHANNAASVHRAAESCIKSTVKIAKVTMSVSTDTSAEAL
Assay: CB-1 in vitro cAMP (HTRF) assay in HEK-293 cells
Format: cell-based
Conditions: HEK-293 cells stably transfected with human CB1R, 250 nM Forskolin, mean where tested more than once, read-out: CB-1 (HEK_cAMP) EC50
parameterMeasured: EC50 (nM)

O=C(OC1CCCC1)N1CCC(c2n[nH]c3ccc(C(c4ccc(Cl)cc4)c4ccc(Cl)cc4)cc23)CC1    40
O=C(CO)N1CCC(c2nn(C3CC3)c3ccc(C(c4ccc(Cl)cc4)c4ccc(Cl)cc4)cc23)CC1    39
O=C(c1nnn[nH]1)N1CCC(c2n[nH]c3ccc(C(c4ccc(Cl)cc4)c4ccc(Cl)cc4)cc23)CC1    1010
O=S(=O)(N1CCN(c2nn(S(=O)(=O)C(F)(F)F)c3ccc(C(c4ccc(Cl)cc4)c4ccc(Cl)cc4)cc23)CC1)C(F)(F)F    1490
O=C(O)c1cccc(C(=O)N2CCC(c3c4cc(C(c5ccc(Cl)cc5)c5ccc(Cl)cc5)ccc4nn3C3CC3)CC2)c1    3500

A = NC(=O)CCC(=O)N1CCC(c2nn(C3CC3)c3ccc(C(c4ccc(Cl)cc4)c4ccc(Cl)cc4)cc23)CC1
B = O=C(O)COc1cccc(N2CCC(c3nn(C4CC4)c4ccc(C(c5ccc(Cl)cc5)c5ccc(Cl)cc5)cc34)CC2)c1
Which entry shows the lesser value of EC50 here, A or B ? Pick one and reply with its label.
A

---

Target: Human CB2R (Cannabanoid receptor 2) (Homo sapiens (Human), UniProt P34972)
Sequence (P34972 whole entry): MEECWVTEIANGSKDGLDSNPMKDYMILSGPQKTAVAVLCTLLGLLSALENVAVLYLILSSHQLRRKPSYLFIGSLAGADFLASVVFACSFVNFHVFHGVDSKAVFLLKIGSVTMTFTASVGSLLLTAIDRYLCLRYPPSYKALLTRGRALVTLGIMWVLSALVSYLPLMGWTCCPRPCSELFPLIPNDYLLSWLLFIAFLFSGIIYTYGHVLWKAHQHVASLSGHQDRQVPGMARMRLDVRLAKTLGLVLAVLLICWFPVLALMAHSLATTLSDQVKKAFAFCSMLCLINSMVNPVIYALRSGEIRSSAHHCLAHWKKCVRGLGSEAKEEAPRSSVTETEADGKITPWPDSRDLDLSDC
Experiment: CB-2 in vitro cAMP (HTRF) assay in HEK-293 cells
Conditions: HEK-293 cells stably transfected with human CB2R, 250 nM Forskolin, mean where tested more than once, read-out: CB-2 (HEK_cAMP) EC50
parameterMeasured: EC50

Worked examples follow.
O=S(=O)(c1ccc(C(F)(F)F)cc1)N1CCC(c2n[nH]c3ccc(C(c4ccc(Cl)cc4)c4ccc(Cl)cc4)cc23)CC1 [Compound 32]    > 10 µM
O=S(=O)(N1CCC(c2nn(-c3nccs3)c3ccc(C(c4ccc(Cl)cc4)c4ccc(Cl)cc4)cc23)CC1)C(F)(F)F [Compound 37]    > 10 µM

# return recorded EC50 for entry O=C(O)c1ccccc1S(=O)(=O)N1CCC(c2c3cc(C(c4ccc(Cl)cc4)c4ccc(Cl)cc4)ccc3nn2C2CC2)CC1 [Compound 123]
> 10 µM

---

Biological target: Human CB2R (Cannabanoid receptor 2) (Homo sapiens (Human), UniProt P34972)
Assay: CB-2 in vitro cAMP (HTRF) assay in HEK-293 cells
Type: cell-based
Settings: HEK-293 cells stably transfected with human CB2R, 250 nM Forskolin, mean where tested more than once, read-out: CB-2 (HEK_cAMP) EC50
pEC50: −log10 of the molar value.
parameterMeasured: pEC50

Worked examples follow.
NC(=O)c1ccc(S(=O)(=O)N2CCC(c3c4cc(C(c5ccc(Cl)cc5)c5ccc(Cl)cc5)ccc4nn3C3CC3)CC2)cc1Cl [Compound 153]    < 5.00
NC(=O)c1ccc(N2CCC(c3n[nH]c4ccc(C(c5ccc(Cl)cc5)c5ccc(Cl)cc5)cc34)CC2)cc1 [Compound 208]    < 5.00
O=S(=O)(c1ccc(O)cc1)N1CCC(Nc2n[nH]c3ccc(C(c4ccc(Cl)cc4)c4ccc(Cl)cc4)cc23)CC1 [Compound 130]    < 5.00

Read the next record carefully.
Given O=C(Oc1ccccc1)N1CCC(c2n[nH]c3ccc(C(c4ccc(Cl)cc4)c4ccc(Cl)cc4)cc23)CC1 [Compound 267] , report its pEC50 on Human CB2R (Cannabanoid receptor 2) (Homo sapiens (Human), UniProt P34972).
< 5.70

---

Biological target: UniProt P21554
Test: CB-1 in vitro cAMP (HTRF) assay in HEK-293 cells
Details: HEK-293 cells stably transfected with human CB1R, 250 nM Forskolin, mean where tested more than once, read-out: CB-1 (HEK_cAMP) EC50
pEC50: −log10 of the molar value.
parameterMeasured: pEC50

NC(=O)c1ccc(C(c2ccc(Cl)cc2)c2ccc3nn(C4CC4)c(C4CCN(S(=O)(=O)C(F)(F)F)CC4)c3c2)cc1 (centres unmarked) [Compound 249]    7.82
O=C(O)c1cccc(S(=O)(=O)N2CCC(c3n[nH]c4ccc(C(c5ccc(Cl)cc5)c5ccc(Cl)cc5)cc34)CC2)c1 [Compound 61]    6.72
O=C(O)c1ccc(N2CCC(c3c4cc(C(c5ccc(Cl)cc5)c5ccc(Cl)cc5)ccc4nn3C3CC3)CC2)cc1 [Compound 193]    6.32
CC(C)S(=O)(=O)N1CCC(Nc2n[nH]c3ccc(C(c4ccc(Cl)cc4)c4ccc(Cl)cc4)cc23)CC1 [Compound 78]    6.75
NC(=O)CS(=O)(=O)N1CCC(c2n[nH]c3ccc(C(c4ccc(Cl)cc4)c4ccc(Cl)cc4)cc23)CC1 [Compound 25]    5.91
O=C(O)c1cncc(CN2CCC(c3c4cc(C(c5ccc(Cl)cc5)c5ccc(Cl)cc5)ccc4nn3C3CC3)CC2)c1 [Compound 255]    7.47

P = NC(=O)c1ccc(S(=O)(=O)N2CCC(Nc3n[nH]c4ccc(C(c5ccc(Cl)cc5)c5ccc(Cl)cc5)cc34)CC2)cc1 [Compound 120]
Q = O=C(O)c1cccc(S(=O)(=O)N2CCC(Nc3n[nH]c4ccc(C(c5ccc(Cl)cc5)c5ccc(Cl)cc5)cc34)CC2)c1 [Compound 128]
R = NC(=O)Cc1ccc(N2CCC(c3nn(C4CC4)c4ccc(C(c5ccc(Cl)cc5)c5ccc(Cl)cc5)cc34)CC2)cc1 [Compound 182]
S = O=S(=O)(C1CC1)N1CCC(c2n[nH]c3ccc(C(c4ccc(Cl)cc4)c4ccc(Cl)cc4)cc23)CC1 [Compound 54]
Ascending sort, pEC50. Put the labels in the requested order and write them down.
Q, R, P, S
(Q: 5.91, R: 6.57, P: 7.30, S: 7.57)

---

Reported pEC50 values are given for each entry in this list.
Target: Human CB2R (Cannabanoid receptor 2) (Homo sapiens (Human), UniProt P34972)
Experiment: CB-2 in vitro cAMP (HTRF) assay in HEK-293 cells
Conditions: HEK-293 cells stably transfected with human CB2R, 250 nM Forskolin, mean where tested more than once, read-out: CB-2 (HEK_cAMP) EC50
From the text: CB1 and CB2 receptors are Gi-coupled GPCR. Activation of CB1 and CB2 receptors results in a decrease in cAMP production. An inverse agonist of the CB1 or CB2 receptor results in the opposite effect, an increase of cAMP production. The principle of this assay is based on HTRF® technology (Homogeneous Time-Resolved Fluorescence). […] The tracer binding is quantified by a Mab anti-cAMP labeled with Eu3+TBP-NHS Cryptate (supplied as part of the assay kit). […]
pEC50: −log10 of the molar value.

Worked examples follow.
NS(=O)(=O)c1cccc(C(=O)N2CCC(c3nn(CCO)c4ccc(C(c5ccc(Cl)cc5)c5ccc(Cl)cc5)cc34)CC2)c1    < 5.00
NC(=O)c1ccc(S(=O)(=O)N2CCC(c3c4cc(C(c5ccc(Cl)cc5)c5ccc(Cl)cc5)ccc4nn3C3CC3)CC2)cc1F    < 5.00
O=C(O)Cc1cccc(N2CCC(c3n[nH]c4ccc(C(c5ccc(Cl)cc5)c5ccc(Cl)cc5)cc34)CC2)c1    < 5.00
O=S(=O)(N1CCC(c2nn(-c3ccccc3Cl)c3ccc(C(c4ccc(Cl)cc4)c4ccc(Cl)cc4)cc23)CC1)C(F)(F)F    < 5.00

# return recorded pEC50 for entry O=C(O)c1ccc(S(=O)(=O)N2CCC(c3n[nH]c4ccc(C(c5ccc(Cl)cc5)c5ccc(Cl)cc5)cc34)C2)o1 (centres unmarked)
< 5.00

# return recorded pEC50 for entry `O=C(O)c1ccc(S(=O)(=O)N2CCC(c3n[nH]c4ccc(C(c5ccc(Cl)cc5)c5ccc(Cl)cc5)cc34)CC2)s1`
5.17

# return recorded pEC50 for entry `O=C(O)c1cccc(S(=O)(=O)N2CCC(c3nn(C4CC4)c4ccc(C(c5ccc(Cl)cc5)c5ccc(Cl)cc5)cc34)CC2)c1`
< 5.00

# return recorded pEC50 for entry `O=C(OC1CCCC1)N1CCC(c2n[nH]c3ccc(C(c4ccc(Cl)cc4)c4ccc(Cl)cc4)cc23)CC1`
< 5.00

# return recorded pEC50 for entry `NC(=O)c1ccc(S(=O)(=O)N2CCC(c3nn(C4CC4)c4ccc(C(c5ccc(Cl)cc5)c5ccc(Cl)cc5)cc34)CC2)cc1`
5.19

# return recorded pEC50 for entry `COc1ccc(S(=O)(=O)N2CCC(c3c4cc(C(c5ccc(Cl)cc5)c5ccc(Cl)cc5)ccc4nn3C3CC3)CC2)cc1C(N)=O`
< 5.00

# return recorded pEC50 for entry `O=C(O)c1cccc(N2CCC(c3nn(C4CC4)c4ccc(C(c5ccc(Cl)cc5)c5ccc(Cl)cc5)cc34)CC2)c1`
< 5.00

# return recorded pEC50 for entry `NC(=O)c1cccc(N2CCC(c3n[nH]c4ccc(C(c5ccc(Cl)cc5)c5ccc(Cl)cc5)cc34)CC2)c1`
< 5.00

# return recorded pEC50 for entry `NC(=O)c1cccc(CN2CCC(c3nn(C4CC4)c4ccc(C(c5ccc(Cl)cc5)c5ccc(Cl)cc5)cc34)CC2)c1`
< 5.00

# return recorded pEC50 for entry `O=C(O)c1ccc(S(=O)(=O)N2CCC(c3c4cc(C(c5ccc(Cl)cc5)c5ccc(Cl)cc5)ccc4nn3C3CC3)CC2)cn1`
5.36

# return recorded pEC50 for entry `O=C(NCCO)c1ccc(-n2nc(C3CCN(S(=O)(=O)C(F)(F)F)CC3)c3cc(C(c4ccc(Cl)cc4)c4ccc(Cl)cc4)ccc32)cc1`
< 5.00
